Values from the RepoRT retention time repository

procedureSummary: Agilent ZORBAX 300 SB-C18, 150 × 1 mm, 3.5 µm; A: water + 0.01% heptafluorobutyric acid; B: acetonitrile + 0.01% heptafluorobutyric acid; gradient (min/%B) 0/0 100/90
conditions: stereoisomer not certain

molecule: Cc1ccc2c(c1)C1CN(C)CCC1N2C(=O)CCCCCN1C(=O)c2ccccc2C1=O (stereo unspecified)
LC retention time / min: 10.6

molecule: S=C1NCN(Cc2ccccc2)CN1
LC retention time / min: 8.28

molecule: O=C1NC(Cc2c[nH]c3ccccc23)C(=O)NC1Cc1c[nH]c2ccccc12 (stereo unspecified)
LC retention time / min: 9.58

molecule: O=C(CC1NC(=O)N(C2CCCCC2)C1=O)NCCc1c[nH]c2ccccc12 (stereo unspecified)
LC retention time / min: 12.1

molecule: Cc1nnc(NN=Cc2ccc(N(C)C)cc2)[nH]c1=O
LC retention time / min: 9.86

molecule: Cc1ccccc1N
LC retention time / min: 7.59

molecule: CC(CCc1ccc(O)cc1)NCC(O)c1ccc(O)cc1 (stereo unspecified)
LC retention time / min: 8.93

molecule: CCOC(=O)c1c(C)n(-c2ccccc2)c2ccc(OC(C)=O)cc12
LC retention time / min: 17

molecule: CC(C)(C)c1ccc(C(CC(=O)O)NC(=O)c2ccccc2)cc1 (stereo unspecified)
LC retention time / min: 13.7

molecule: CC(C)(C)c1ccc(C(=O)Nc2ccc(N)cc2)cc1
LC retention time / min: 11.2

molecule: Cc1ccc2c(c1)C1CN(C)CCC1N2C(=O)CN1CCCCC1 (stereo unspecified)
LC retention time / min: 7.91

---

procedureSummary: Agilent ZORBAX 300 SB-C18, 150 × 1 mm, 3.5 µm; A: water + 0.01% heptafluorobutyric acid; B: acetonitrile + 0.01% heptafluorobutyric acid; gradient (min/%B) 0/0 100/90
conditions: stereoisomer not certain
Readings of LC retention time for the listed molecules

molecule: OCC(CO)(CO)c1ccccn1
measurementUnits: min
LC retention time: 4.36
--
molecule: O=C(CCCCCN1C(=O)c2ccccc2C1=O)NCc1ccccn1
measurementUnits: min
LC retention time: 9.55
--
molecule: Cc1cccc(C=NNC(=O)C[n+]2ccccc2)c1
measurementUnits: min
LC retention time: 9.09
--
molecule: CCN(CC)CCOc1ccccc1OC
measurementUnits: min
LC retention time: 8.83
--
molecule: S=C(NCCc1c[nH]c2ccccc12)Nc1ccccc1
measurementUnits: min
LC retention time: 13.2
--
molecule: NC1C(=O)Nc2ccccc21 (configuration not stated)
measurementUnits: min
LC retention time: 7.8
--
molecule: C[N+]12CCC(CC1)C1CC(O)CCC12 (configuration not stated)
measurementUnits: min
LC retention time: 6.39
--
molecule: COC(=O)c1ccc(NC(=O)Cn2nc(C)c3ccccc3c2=O)cc1
measurementUnits: min
LC retention time: 11.9
--
molecule: CCN(CC)C(=O)c1cc(C)nc2c1c(=O)n(CC(=O)Nc1ccccc1)c(=O)n2C
measurementUnits: min
LC retention time: 12
--
molecule: O=c1[nH]c2ccccc2c(=O)n1-c1cccnc1
measurementUnits: min
LC retention time: 8.1
--
molecule: CCN(CC)CC(=O)Nc1c(C)cccc1C
measurementUnits: min
LC retention time: 9.19
--
molecule: O=C(O)CCCNC(=O)CCCCCCCC(=O)NCCCC(=O)O
measurementUnits: min
LC retention time: 7.58

---

procedureSummary: Agilent ZORBAX 300 SB-C18, 150 × 1 mm, 3.5 µm; A: water + 0.01% heptafluorobutyric acid; B: acetonitrile + 0.01% heptafluorobutyric acid; gradient (min/%B) 0/0 100/90
conditions: stereoisomer not certain
Readings of LC retention time for the listed molecules

molecule: CNCCCCCCNC
LC retention time (min): 7.03
//
molecule: NCCCNCCN
LC retention time (min): 7.42
//
molecule: O=C(NN=Cc1cccc(O)c1)c1cc2ccccc2cc1O
LC retention time (min): 12.2
//
molecule: CC(C)Nc1ccccc1
LC retention time (min): 8.04
//
molecule: Cc1ccc(C(=O)NCCc2c(C)[nH]c3ccccc23)cc1
LC retention time (min): 13.6
//
molecule: CCc1ncc(C)[nH]1
LC retention time (min): 6.62
//
molecule: CCn1c2ccccc2c2cc(CNC3CC3)ccc21
LC retention time (min): 10.8
//
molecule: CCCCCCn1c2ccccc2c2cc(C(=O)O)ccc21
LC retention time (min): 17.8
//
molecule: CC(C)c1ccccc1NC(=O)c1cc2ccccc2o1
LC retention time (min): 15.9
//
molecule: c1cnccn1
LC retention time (min): 5.91
//
molecule: C1=Nc2ccccc2C(c2cccc3ccccc23)C1c1ccc2ccccc2n1 (stereo not drawn)
LC retention time (min): 12.9
//
molecule: CC(c1ccccc1)C1Nc2ccccc2C(=O)N1c1ccccc1 (stereo not drawn)
LC retention time (min): 15
//
molecule: Cc1ccc(N2NC(C)(CC(C)C)NC2=S)cc1 (stereo not drawn)
LC retention time (min): 15.1

---

Readings of LC retention time for the listed compounds
procedureSummary: Agilent ZORBAX 300 SB-C18, 150 × 1 mm, 3.5 µm; A: water + 0.01% heptafluorobutyric acid; B: acetonitrile + 0.01% heptafluorobutyric acid; gradient (min/%B) 0/0 100/90
conditions: stereoisomer not certain
measureName: LC retention time (min)

compound: Cc1ccc(N2C3=C(C(=O)CC(C)(C)C3)C(c3ccccc3)C3=C2c2ccccc2C3=O)cc1 (stereo unspecified)
measurementUnits: min
measValue: 18.4
--
compound: CNC(=S)C(=S)NC
measurementUnits: min
measValue: 7.06
--
compound: CC(=O)c1c(-c2ccccc2)[nH]c2ccccc12
measurementUnits: min
measValue: 13
--
compound: c1ccc(Cn2ccc3ccccc32)cc1
measurementUnits: min
measValue: 16.8
--
compound: Cc1cccc(-c2nnc(-c3ccccc3C)o2)c1
measurementUnits: min
measValue: 17.1
--
compound: O=C(Nc1ccc2c(c1)oc1ccccc12)c1ccc(C2CCCCC2)cc1
measurementUnits: min
measValue: 20.1
--
compound: CCOC(=O)CN
measurementUnits: min
measValue: 6.34
--
compound: Cc1[nH]c(-c2ccccc2)c(-c2ccccc2)c1C(=O)OCc1ccccc1
measurementUnits: min
measValue: 18.2
--
compound: CNCCCCCCN(C)CCCCCCNC
measurementUnits: min
measValue: 7.6
--
compound: CC(=O)N=Nc1c(O)[nH]c2ccccc12
measurementUnits: min
measValue: 7.66
--
compound: NC(=O)C1(N2CCCCC2)CCN(C(=O)C2CCCCC2)CC1
measurementUnits: min
measValue: 8.4
--
compound: Cn1ccnc1
measurementUnits: min
measValue: 3.76
--
compound: CN(C)c1ccncc1N
measurementUnits: min
measValue: 7.03
--
compound: O=C(O)c1ccc2nccnc2c1
measurementUnits: min
measValue: 7.67
--
compound: Nn1cnn(Cc2ccccc2)c1=S
measurementUnits: min
measValue: 10.3
--
compound: O=C1CCC=C1CSc1ccccc1
measurementUnits: min
measValue: 13.1
--
compound: O=C(C=Cc1ccccc1O)c1ccccc1O
measurementUnits: min
measValue: 14.5
--
compound: CNCCCN1c2ccccc2CCc2ccccc21
measurementUnits: min
measValue: 11.5
--
compound: CCCCNC
measurementUnits: min
measValue: 7.29
--
compound: CSC1=NC(C)(C)Cc2c(C)cccc21
measurementUnits: min
measValue: 9.67
--
compound: Cc1nc2ccc(N)cc2nc1C
measurementUnits: min
measValue: 7.33
--
compound: O=C1C=CC(=O)N1C1CCCCC1
measurementUnits: min
measValue: 9.58
--
compound: O=C(Nc1ccccc1)C(=O)NC(CO)(CO)CO
measurementUnits: min
measValue: 8.16
--
compound: CC(=O)c1cccc(NC(=O)c2ccc(C)cc2)c1
measurementUnits: min
measValue: 13
--
compound: COc1ccc(N(C)C(=O)c2cccc(C(=O)N(C)c3ccc(OC)cc3)c2)cc1
measurementUnits: min
measValue: 12.6
--
compound: O=C(c1ccc(-c2ccccc2)cc1)N1CCN(c2ccccc2)CC1
measurementUnits: min
measValue: 16.5

---

procedureSummary: Agilent ZORBAX 300 SB-C18, 150 × 1 mm, 3.5 µm; A: water + 0.01% heptafluorobutyric acid; B: acetonitrile + 0.01% heptafluorobutyric acid; gradient (min/%B) 0/0 100/90
conditions: stereoisomer not certain
Label 1 when LC retention time is strictly below 10 min; otherwise label -1.

compound: c1ccc(-n2c3c(c4ccccc42)CCCC3)cc1
classification: -1
--
compound: CC(=O)c1[nH]c2c(c1C)C(=O)CCC2
classification: 1
--
compound: CN1CCOC1=O
classification: 1
--
compound: CC(Nc1ccc2ccccc2c1)C(=O)NN=Cc1cccc2ccccc12 (stereo unspecified)
classification: -1
--
compound: CC(=NN=C(C)c1cccc(N)c1)c1cccc(N)c1
classification: 1
--
compound: CN(N)c1nc(N2CCCC2)nc(N2CCCC2)n1
classification: -1

---

Readings of LC retention time for the listed molecules
procedureSummary: Agilent ZORBAX 300 SB-C18, 150 × 1 mm, 3.5 µm; A: water + 0.01% heptafluorobutyric acid; B: acetonitrile + 0.01% heptafluorobutyric acid; gradient (min/%B) 0/0 100/90
conditions: stereoisomer not certain

molecule: Cc1cc(O)c(C(C)C)cc1CNC(=O)c1ccccc1O
LC retention time: 14.4 min
//
molecule: O=C(NCCCn1c2ccccc2c2ccccc21)Nc1ccccc1
LC retention time: 15.8 min
//
molecule: COc1ccc(C2NNc3nn(-c4ccccc4OC)nc32)cc1 (stereo unspecified)
LC retention time: 13.6 min
//
molecule: Cc1nn(CC(=O)NC2CC(C)(C)NC(C)(C)C2)c(=O)c2ccccc12
LC retention time: 8.35 min
//
molecule: Cn1c(=N)n(CC(=O)c2ccccc2)c2ccccc21
LC retention time: 10 min
//
molecule: CC1CC(O)(CC(O)(c2ccccc2)c2ccccc2)C(C)CN1C (stereo unspecified)
LC retention time: 10.2 min
//
molecule: CC[N+](CC)(CC)Cc1ccccc1
LC retention time: 8.32 min
//
molecule: CCc1ccc(NCCC(=O)c2ccc3c(c2)Cc2ccccc2-3)cc1
LC retention time: 16.3 min
//
molecule: CNc1cnccn1
LC retention time: 6.32 min
//
molecule: C#CC(C)(CC)NC(=O)C(=Cc1ccccc1)NC(=O)c1ccccc1 (stereo unspecified)
LC retention time: 13.5 min
//
molecule: CC1(C)CC(NC(=S)NC2CCCCC2)CC(C)(C)N1
LC retention time: 9.89 min
